experiment: soluble fraction after stress (log2 fold change); higher = more stays soluble; pooled small domains, quantitative proteomics; details: stress: 50 degC
Answer each item with its documented soluble fraction (log2).
Kindly provide the number alone.

Tell me the measured soluble fraction (log2) of HMGLLEMPSERERQVLVLIAEGLSNKEIAARLYLTEGTVKNHAHSLYAKLNVTTRTLAIARARQLGI , please.
-1.54

Tell me the measured soluble fraction (log2) of HMESGLPLPRFVSLGADEVNLRTGPGLRYPVAWVFVRKALPVEIVAEFEQWRRVRDFEGAEGWVHKAML , please.
-0.36

Tell me the measured soluble fraction (log2) of HMSTKRGEILEFLKDFSARKGYAPSVREIMQAVGLKSTASVHYHLSELHKAGLITVDGTKNRAISLA , please.
-0.149

Tell me the measured soluble fraction (log2) of HMGTAESIRLFLSSGLIKGVGEALAGRIVDTFGTDTFDIIENHPELLAGVKGISHRLAMSIYESFSQHIGV , please.
-1.03

Tell me the measured soluble fraction (log2) of HMYTVQQLARLAGITPRTLRHYDAIGLLKPTRVGENGYRYYGSEALLRLQSILLYRELDMPLEDIRRVLDS , please.
-3.15

Tell me the measured soluble fraction (log2) of HMKSIETVAELVAELKKLNPNAKISNIDGTYTLEEDINTITLPKDFKYDNNLGINNKIDDFTPYISLDVKA , please.
0.41

Tell me the measured soluble fraction (log2) of HMLEPEVLDLIGQVKSVHHFSVTQSHQLEKLVRHAHTLGFEIAELKSLLASSPNAKSLLSSLDQKLEPLRM , please.
-0.909

Tell me the measured soluble fraction (log2) of HMGIRYQLADDVTDEQITAMTGKKAKIAAAIKAAGSAVSKMNVAGEMGYDKQNPINKDFMELVDAGIIVPS , please.
0.00228

----------
Answer each item with its documented soluble fraction (log2).
assay: soluble fraction after stress (log2 fold change); higher = more stays soluble; pooled small domains, quantitative proteomics; details: stress: 50 degC
Kindly provide the number alone.

Tell me the measured soluble fraction (log2) of HMDLANRSLDRGITILESLARNGASSLADLHRDSGIAKSTIRRLLGTLIQHRLVRRSVADGLYRVTIPLPA , please.
-1.18

Tell me the measured soluble fraction (log2) of HMPAPAPDIPYHSRVSVRRADGFYEGTWTNTAPILDYTGRWMVNVSLGGKRVFVPVEEVVVH , please.
-0.862

Tell me the measured soluble fraction (log2) of HMKLSLKTQVKEYLLSYIRDKKLQPGDRLLTQRELAEMLHTSQKVAQMALNSLEEEGIIIRRLGSGSFLAR , please.
-1.11

Tell me the measured soluble fraction (log2) of HMNVVSIEHIRTHLQNHLSLIGRSIEESFNEAKVIAFVASLFLTHRGYASVSQDMGTNGEIYLQDLW , please.
-0.381

Tell me the measured soluble fraction (log2) of HMVSPFQQQIADKVHNEIIAAKFNYDNATNENERLLAQLQAKKARELANQYGLDMSSYGADTTAERS , please.
0.235

Tell me the measured soluble fraction (log2) of HMVNVTEAIDLENGTGKLSGTFNHEPKSAEEIIFLLKIDTNKWKLSQYWNKQMGDHWRVSALISQI , please.
-1.91

Tell me the measured soluble fraction (log2) of HMNETVTNQTVLDLLKEGFTSEEIIGAIENSSTRTITYDINFMRQLKAAGADVTLTTYLQKIAKKDM , please.
-0.13

Tell me the measured soluble fraction (log2) of HMATTMSADWRPSEDAVGILVNAEINARFIEDAIPEFVLYWRERGAVHGAWNSKFIEHIRRQWAKFSAS , please.
-2.2
